Please respond with reported LC50 at 72 h for every item in the list.
test: Combined toxicity of chlorpyrifos and butachlor to zebrafish larvae; details: in vivo, equitoxic ratio, 72 h, read-out: LC50 (95% CI) of the component in the mixture
Numbers only, in µg/mL.

CCOP(=S)(OCC)Oc1nc(Cl)c(Cl)cc1Cl; 0.27

CCCCOCN(C(=O)CCl)c1c(CC)cccc1CC yielded LC50 at 72 h of 0.45

----------
assay: Combined toxicity of chlorpyrifos and butachlor to zebrafish larvae; conditions: in vivo, equitoxic ratio, 24 h, read-out: LC50 (95% CI) of the component in the mixture
measurement label: LC50 at 24 h (µg/mL)
Give bare numbers, in µg/mL.

CCOP(=S)(OCC)Oc1nc(Cl)c(Cl)cc1Cl [Chlorpyrifos, chlorpyrifos]; 0.55

Please look at the following molecule next.
Looking up CCCCOCN(C(=O)CCl)c1c(CC)cccc1CC [Butachlor, butachlor] , I found its LC50 at 24 h recorded as 0.91

----------
assay: Combined toxicity of chlorpyrifos and butachlor to Japanese medaka larvae; conditions: in vivo, Japanese medaka larvae, chlorpyrifos:butachlor ratio 4:1, 96 h, read-out: LC50 (95% CI) of the component in the mixture
Assign LC50 at 96 h to each entry below.
One number for each entry, in µg/mL.

CCOP(=S)(OCC)Oc1nc(Cl)c(Cl)cc1Cl; 0.14

// sample CCCCOCN(C(=O)CCl)c1c(CC)cccc1CC , its LC50 at 96 h was 0.036

----------
Task for the reader: assign each of the following compounds its reported LC50 at 96 h.
assay: Combined toxicity of chlorpyrifos and butachlor to Japanese medaka larvae; details: in vivo, other: immersion in test solution (waterborne exposure), Japanese medaka larvae, chlorpyrifos:butachlor ratio 1:1, 96 h, read-out: LC50 (95%) CI of the component in the mixture
One number for each entry, in µg/mL.

CCCCOCN(C(=O)CCl)c1c(CC)cccc1CC [Butachlor, butachlor]; 0.81

Consider the record given below.
Entry CCOP(=S)(OCC)Oc1nc(Cl)c(Cl)cc1Cl [Chlorpyrifos, chlorpyrifos] — recorded LC50 at 96 h = 0.81

----------
assay: Combined toxicity of chlorpyrifos and butachlor to Japanese medaka larvae; conditions: in vivo, other: immersion in test solution (waterborne exposure), chlorpyrifos:butachlor ratio 3:2, 72 h, read-out: LC50 (95% CI) of the component in the mixture
measurement label: LC50 at 72 h (µg/mL)
Give bare numbers, in µg/mL.

CCCCOCN(C(=O)CCl)c1c(CC)cccc1CC [Butachlor, butachlor]; 0.87

// moving on: another record for LC50 at 72 h
// LC50 at 72 h value for CCOP(=S)(OCC)Oc1nc(Cl)c(Cl)cc1Cl [Chlorpyrifos, chlorpyrifos] : 1.31

----------
experiment: Combined toxicity of chlorpyrifos and butachlor to zebrafish larvae; conditions: in vivo, equivalent concentration (1:1), 48 h, read-out: LC50 (95% CI) of the component in the mixture
Kindly state LC50 at 48 h for each of the entries shown.
Give bare numbers, in µg/mL.

CCCCOCN(C(=O)CCl)c1c(CC)cccc1CC; 0.16

Now let's try a different one.
Documented LC50 at 48 h of CCOP(=S)(OCC)Oc1nc(Cl)c(Cl)cc1Cl : 0.16

----------
For each record, write down the corresponding LC50 at 72 h.
test: Single toxicity of chlorpyrifos and butachlor to Japanese medaka larvae; conditions: in vivo, other: immersion in test solution (waterborne exposure), exposure time 72 h, read-out: LC50 (95% CI)
Give bare numbers, in µg/mL.

CCOP(=S)(OCC)Oc1nc(Cl)c(Cl)cc1Cl; 0.35

Then this compound:
LC50 at 72 h reading for CCCCOCN(C(=O)CCl)c1c(CC)cccc1CC : 0.54

----------
Give measured LC50 at 24 h for each item. Keep answers brief.
assay: Single toxicity of chlorpyrifos and butachlor to zebrafish larvae; conditions: in vivo, other: immersion in test solution (waterborne exposure), exposure time 24 h, read-out: LC50 (95% CI)
Give bare numbers, in µg/mL.

CCCCOCN(C(=O)CCl)c1c(CC)cccc1CC [Butachlor, butachlor]; 0.67

Measured LC50 at 24 h, CCOP(=S)(OCC)Oc1nc(Cl)c(Cl)cc1Cl [Chlorpyrifos, chlorpyrifos] : 0.67

----------
assay: Combined toxicity of chlorpyrifos and butachlor to Japanese medaka larvae; details: in vivo, other: immersion in test solution (waterborne exposure), chlorpyrifos:butachlor ratio 3:2, 96 h, read-out: LC50 (95% CI) of the component in the mixture
Exercise: for every item that follows, state its recorded LC50 at 96 h.
Express the reported value numerically, then name its unit.

CCCCOCN(C(=O)CCl)c1c(CC)cccc1CC; 0.66 µg/mL

Per the records, this molecule ( CCOP(=S)(OCC)Oc1nc(Cl)c(Cl)cc1Cl ) has LC50 at 96 h equal to 0.99 µg/mL
